test system: 17beta-HSD3 (Rattus norvegicus); experiment: Inhibition of 17beta-HSD3 at 100 uM
Output yes for inhibition not less than 80%; output no otherwise.

> print(dat)
          smiles.structure  class
1    CCCCCC(=O)c1ccc(O)cc1     no
2  CCCCCCCC(=O)c1ccc(O)cc1    yes

###

tested on: 17beta-HSD3 (Rattus norvegicus); experiment: Inhibition of 17beta-HSD3 at 100 uM
result_type: inhibition (%)

> print(dat)
              smiles.structure  unit.label  assay.value
1       CCCCCCC(=O)c1ccc(O)cc1           %         80.3
2  CCCCCCCCCCCC(=O)c1ccc(O)cc1           %         78.9
3    CCCCCCCCCC(=O)c1ccc(O)cc1           %         81.4
